system: HEK-293T; assay: Multiplex assay against HEK293T; format: toxicity, cell-based; settings: human, 12 h, 10 µM, compound concentration 10 uM, replicate 2
ENDPOINT NAME: Population Pyknosed Nuclei (%)
Note: unit % is implicit; provide only the numeric part.

Worked cases, Population Pyknosed Nuclei (%) given:
Short answer for `N[C@@]1(C(=O)O)CO[C@H]2[C@H](C(=O)O)[C@H]21` : Population Pyknosed Nuclei (%) was 12

Input COc1ccc2c(c1)C(C(=O)N(Cc1ccc(N(C)C)cc1)c1ccc(C(C)C)cc1)CCC2.Cl (centres undefined) . Output Population Pyknosed Nuclei (%): 17

***
Kindly note the recorded Population Pyknosed Nuclei (%) for `COc1cc(C(=O)N(CCCc2ccccc2)Cc2ccc(CC(=O)O)cc2)cc(OC)c1C` , which is 13

get_value(item= `C[C@H]1[C@H]2CC[C@H]3[C@@H]4CC=C5C[C@@H](N(C)C)CC[C@]5(C)[C@H]4CC[C@]23CN1C` , readout=Population Pyknosed Nuclei (%)) returns 14

----------
test system: Fibroblast; experiment: Multiplex assay against human fibroblast; format: toxicity, cell-based; conditions: 12 h, 10 µM, compound concentration 10 uM, replicate 1
ENDPOINT NAME: Population Membrane Permeable-Phenotype (%)
A number alone suffices; assume %.

Solved cases below.
Short answer for Cc1ccc(C(C)(O)c2nc3ccccc3s2)c(C)c1 (configuration not stated) : Population Membrane Permeable-Phenotype (%) was 0

// sample CNC[C@H](O)c1ccc(O)c(O)c1 [EPINEPHRINE] , its Population Membrane Permeable-Phenotype (%) was 1

# molecule `CN(C)CCCc1cc(C(=O)Nc2ccc(-c3ccncc3)cc2)ccc1O.Cl.Cl` ; its Population Membrane Permeable-Phenotype (%) = 0

Memo: Cl.Clc1ccc2nsnc2c1NC1=NCCN1 [TIZANIDINE HYDROCHLORIDE] , reported Population Membrane Permeable-Phenotype (%): 0

Briefly, Population Membrane Permeable-Phenotype (%) measured for `O=C1COc2nccc(-c3ccccc3F)c2CN1Cc1cc(C(F)(F)F)cc(C(F)(F)F)c1` : 0

Entry `CCCn1c(=O)c2[nH]c(C3CCCC3)nc2n(CCC)c1=O` — recorded Population Membrane Permeable-Phenotype (%) = 0

Record summary for COc1ccc2c(c1)C(C(=O)N(Cc1ccc(N(C)C)cc1)c1ccc(C(C)C)cc1)CCC2.Cl (configuration not stated) : reported Population Membrane Permeable-Phenotype (%) = 0

The molecule listed as O=S(=O)(c1ccccc1)c1cnc2c(N3CCNCC3)cccc2c1 [INTEPIRDINE] shows Population Membrane Permeable-Phenotype (%) equal to 1

Value of Population Membrane Permeable-Phenotype (%) reported for the molecule `CC[C@H]1OC(=O)[C@H](C)[C@@H](O[C@H]2C[C@@](C)(OC)[C@@H](O)[C@H](C)O2)[C@H](C)[C@@H](O[C@@H]2O[C@H](C)C[C@H](N(C)C)[C@H]2O)[C@@]2(C)CC(C)=C(O2)[C@H](C)[C@@H](O)[C@]1(C)O` is 0

# Population Membrane Permeable-Phenotype (%) (molecule: CSc1ccccc1N1CCN(CCCCCC(=O)NC2CCCc3ccccc32)CC1.Cl (configuration not stated) ) is 0

New cases:
Record CC(=O)NCCc1c(Cc2ccccc2)[nH]c2ccccc12 [LUZINDOLE] . Reported Population Membrane Permeable-Phenotype (%): 2

So for N#Cc1c(N)nc(SCc2csc(-c3ccc(Cl)cc3)n2)c(C#N)c1-c1ccc(OCCO)cc1 [CAPADENOSON] , the logged Population Membrane Permeable-Phenotype (%) turned out to be 0

For reference, reported Population Membrane Permeable-Phenotype (%) for CCNC1(C(N)=O)CCN(c2ncnc3c2nc(-c2ccccc2Cl)n3-c2ccc(Cl)cc2)CC1 [OTENABANT] stands at 0

Measured Population Membrane Permeable-Phenotype (%) of COc1cc(NC(=O)CCN2CCC(OC(=O)Nc3ccccc3-c3ccccc3)CC2)c(Cl)cc1CNC[C@H](O)c1ccc(O)c2[nH]c(=O)ccc12 [BATEFENTEROL] : 0

----------
test system: HEK-293T; assay: Multiplex assay against HEK293T; type: toxicity, cell-based; details: human, 12 h, 10 µM, compound concentration 10 uM, replicate 2
# Population Mitotic Cells (%) >= 40% gives label 1, anything below gives label 0

Q: Threshold query (Population Mitotic Cells (%) >= 40%) on Cc1ccc(F)cc1C(=O)Nc1ccc(C(=O)N2Cc3cccn3Cc3ccccc32)c(Cl)c1 [LIXIVAPTAN]
A: label 1

Further cases:
Q: For this compound, is measured Population Mitotic Cells (%) 40% or higher? CN1CCN2c3ncccc3Cc3ccccc3C2C1 (stereo not drawn) [MIRTAZAPINE]
A: label 1

Q: Is Population Mitotic Cells (%) at least 40%? Consider c1cc(OCCCN2CCCCC2)ccc1CN1CCCCC1 [JNJ-5207852]
A: label 0

Q: Please check the record COc1ccc2c(c1)C(C(=O)N(Cc1ccc(N(C)C)cc1)c1ccc(C(C)C)cc1)CCC2.Cl (stereo not drawn) and state if its Population Mitotic Cells (%) is at or above 40%.
A: label 0

Q: Form field: Population Mitotic Cells (%) at least 40%? Entry: `CN1CCN(c2nc3cc(C(F)(F)F)ccc3n3cccc23)CC1.O=C(O)/C=C\C(=O)O.O=C(O)/C=C\C(=O)O`
A: label 0

----------
tested on: U2OS; assay: Multiplex assay against U2OS; format: toxicity, cell-based; conditions: human, 24 h, 10 µM, compound concentration 10 uM, replicate 1
ENDPOINT NAME: Population Hoechst High Intensity Objects (%)
Hi! Could you send only the number? It should be in %, unit omitted.

Some compounds with known Population Hoechst High Intensity Objects (%) results, for comparison:
// Population Hoechst High Intensity Objects (%) lookup, compound = CNC[C@H](O)c1ccc(O)c(O)c1 [EPINEPHRINE] , result: 9

In plain terms, `CCCn1c(=O)c2[nH]c(C3CCCC3)nc2n(CCC)c1=O` has a documented Population Hoechst High Intensity Objects (%) of 2

# Population Hoechst High Intensity Objects (%) (compound: N#Cc1c(N)nc(SCc2csc(-c3ccc(Cl)cc3)n2)c(C#N)c1-c1ccc(OCCO)cc1 [CAPADENOSON] ) is 5

For the next question, use this compound.
Form: compound = `COc1cc(C(=O)N(CCCc2ccccc2)Cc2ccc(CC(=O)O)cc2)cc(OC)c1C` ; Population Hoechst High Intensity Objects (%) = 0

----------
test system: U2OS; assay: Multiplex assay against U2OS; format: toxicity, cell-based; details: human, 12 h, 10 µM, compound concentration 10 uM, replicate 2
Quick reference for Population Mitotic Cells (%) among some molecules
# answer = value followed by unit

Sample records with Population Mitotic Cells (%):
Consider `COc1cc(NC(=O)CCN2CCC(OC(=O)Nc3ccccc3-c3ccccc3)CC2)c(Cl)cc1CNC[C@H](O)c1ccc(O)c2[nH]c(=O)ccc12` . Its measured Population Mitotic Cells (%) is 11%

// sample `CC[C@H]1OC(=O)[C@H](C)[C@@H](O[C@H]2C[C@@](C)(OC)[C@@H](O)[C@H](C)O2)[C@H](C)[C@@H](O[C@@H]2O[C@H](C)C[C@H](N(C)C)[C@H]2O)[C@@]2(C)CC(C)=C(O2)[C@H](C)[C@@H](O)[C@]1(C)O` , its Population Mitotic Cells (%) was 26%

Reported Population Mitotic Cells (%) for `CCCn1c(=O)c2[nH]c(C3CCCC3)nc2n(CCC)c1=O` was 0%

Please fill in: Population Mitotic Cells (%) reported for `c1cc(OCCCN2CCCCC2)ccc1CN1CCCCC1` = 14%

Per the record, `C[C@@H]1C[C@H]2[C@@H]3CCC4=CC(=O)C=C[C@]4(C)[C@@]3(F)[C@@H](O)C[C@]2(C)[C@@]1(O)C(=O)CO` has Population Mitotic Cells (%) of 15%

Value of Population Mitotic Cells (%) reported for the molecule `CN(C)CCCc1cc(C(=O)Nc2ccc(-c3ccncc3)cc2)ccc1O.Cl.Cl` is 57%

// moving on: another record for Population Mitotic Cells (%)
Entry `CN(C)c1ccnc2sc3c(=O)n(N4CCCCCC4)cnc3c12` — recorded Population Mitotic Cells (%) = 11%

----------
test system: U2OS; experiment: Multiplex assay against U2OS; type: toxicity, cell-based; conditions: human, 24 h, 10 µM, compound concentration 10 uM, replicate 2
Measured Population Mitochondria Different-Phenotype (%) values are reported for all entries that follow.
All answers are understood in %, so give the number only.

Example entries and their recorded answers appear below.
The compound listed as N#Cc1c(N)nc(SCc2csc(-c3ccc(Cl)cc3)n2)c(C#N)c1-c1ccc(OCCO)cc1 [CAPADENOSON] has a reported Population Mitochondria Different-Phenotype (%) of 58

So, N[C@@]1(C(=O)O)CO[C@H]2[C@H](C(=O)O)[C@H]21 [LY-379268] ? Its Population Mitochondria Different-Phenotype (%) was 4

Population Mitochondria Different-Phenotype (%) in this record for CCCC(CCC)C(=O)O [VALPROIC ACID] : 4

New cases:
GET /value?item= `CSCC[C@H](NC=O)C(=O)N[C@@H](CC(C)C)C(=O)N[C@@H](Cc1ccccc1)C(=O)O` &field=Population Mitochondria Different-Phenotype (%) returns 2

response.value for CNC[C@H](O)c1ccc(O)c(O)c1 [EPINEPHRINE] (field: Population Mitochondria Different-Phenotype (%)) = 0

Noted for CC(=O)O[C@H]1C(=O)[C@@]2(C)[C@H]([C@H](OC(=O)c3ccccc3)[C@]3(O)C[C@H](OC(=O)[C@H](O)[C@@H](NC(=O)c4ccccc4)c4ccccc4)C(C)=C1C3(C)C)[C@]1(OC(C)=O)CO[C@@H]1C[C@@H]2O [PACLITAXEL] : its Population Mitochondria Different-Phenotype (%) reads 52

# Population Mitochondria Different-Phenotype (%) of `CN(C)CCCc1cc(C(=O)Nc2ccc(-c3ccncc3)cc2)ccc1O.Cl.Cl` = 8

The reported Population Mitochondria Different-Phenotype (%) of the compound C[C@H](NC(=O)c1c(C(F)F)nn(C)c1Oc1cccc(C(F)(F)F)c1)c1ccc(C(=O)O)cc1 [PALUPIPRANT] was 1

Recorded result, Cc1ccccc1C(=O)Nc1ccc(C(=O)N2CCCC(N(C)C)c3ccccc32)cc1.Cl (centres undefined) , Population Mitochondria Different-Phenotype (%): 18

Population Mitochondria Different-Phenotype (%) measured on Cc1ccc(F)cc1C(=O)Nc1ccc(C(=O)N2Cc3cccn3Cc3ccccc32)c(Cl)c1 [LIXIVAPTAN] = 67

For reference, reported Population Mitochondria Different-Phenotype (%) for C[C@@H]1C[C@H]2[C@@H]3CCC4=CC(=O)C=C[C@]4(C)[C@@]3(F)[C@@H](O)C[C@]2(C)[C@@]1(O)C(=O)CO [DEXAMETHASONE] stands at 2

// Cc1ccc(C(C)(O)c2nc3ccccc3s2)c(C)c1 (centres undefined) : Population Mitochondria Different-Phenotype (%) value = 1

Item: `COc1c(C)cc(NC(=O)c2nn(Cc3ccc(F)cc3)c3c2CN(C(=O)c2ccc[nH]2)C[C@]3(C)C(N)=O)cc1C` | Population Mitochondria Different-Phenotype (%): 91

Population Mitochondria Different-Phenotype (%) reported for this compound CCCN1CCC[C@@H]2Cc3n[nH]cc3C[C@H]21.Cl [QUINPIROLE HYDROCHLORIDE] : 1

Briefly, Population Mitochondria Different-Phenotype (%) measured for `Oc1c(CN2CCN(c3ccccn3)CC2)cc(Cl)c2cccnc12` : 40

Please fill in: Population Mitochondria Different-Phenotype (%) reported for C[C@H]1[C@H]2CC[C@H]3[C@@H]4CC=C5C[C@@H](N(C)C)CC[C@]5(C)[C@H]4CC[C@]23CN1C [CONESSINE] = 4

Reported Population Mitochondria Different-Phenotype (%) of `O=C(NCCO)c1cccc(-c2cc(Nc3ccc(OC(F)(F)F)cc3)ncn2)c1` : 13

For record `CN(C)c1ccnc2sc3c(=O)n(N4CCCCCC4)cnc3c12` the listed Population Mitochondria Different-Phenotype (%) is 25

For this compound ( `CN1CCN(c2nc3cc(C(F)(F)F)ccc3n3cccc23)CC1.O=C(O)/C=C\C(=O)O.O=C(O)/C=C\C(=O)O` ), measured Population Mitochondria Different-Phenotype (%) is 36

compound COc1cc(NC(=O)CCN2CCC(OC(=O)Nc3ccccc3-c3ccccc3)CC2)c(Cl)cc1CNC[C@H](O)c1ccc(O)c2[nH]c(=O)ccc12 [BATEFENTEROL] , Population Mitochondria Different-Phenotype (%) observed: 91

The measured Population Mitochondria Different-Phenotype (%) associated with COc1ccc2c(c1)C(C(=O)N(Cc1ccc(N(C)C)cc1)c1ccc(C(C)C)cc1)CCC2.Cl (centres undefined) reads 53

The compound identified as CC(=O)NCCc1c(Cc2ccccc2)[nH]c2ccccc12 [LUZINDOLE] registered its Population Mitochondria Different-Phenotype (%) at 1
